# PROTOCOL_DETAILS: clinical
# EXPERIMENTAL_CONTEXT: human, plasma, po, 2 mg
# Description: AUC(0 to 12 hrs) in solid tumor patient at 2 mg, po administered as single dose measured on day 7
PROPERTY_LABEL: AUC(0-t) at 12 h (ng·h/mL)
One number for each entry, in ng·h/mL.

I have this molecule here, Cc1ncc2n1-c1ccc(Cl)cc1C(c1ccccc1F)=NC2 , and I need its recorded AUC(0-t) at 12 h.
42.5

----------
# PROTOCOL_DETAILS: clinical
# EXPERIMENTAL_CONTEXT: human, in vivo, po
# Description: Half life in solid tumor patient at 2 mg, po administered as single dose followed by co-treatment with 27 mg/m2, iv carfilzomib over 2 to 10 mins on days 1, 2, 8, 9, 15 and 16 of single 28-day cycle measured on day 16
PROPERTY_LABEL: half-life (h)
Give bare numbers, in h.

I have this molecule here, Cc1ncc2n1-c1ccc(Cl)cc1C(c1ccccc1F)=NC2 , and I need its recorded half-life.
5.5

----------
# PROTOCOL_DETAILS: Plasma clearance in human patient with relapsed solid tumor at 20 mg/m'2, iv administered on days 1, 2, 8, 9, 15 and 16 of 28-day cycle over 2 to 10 mins measured on day 16 of cycle 1 by LC-MS/MS analysis
# Format: ADME, organism-based
PROPERTY_LABEL: clearance
Answer format: number, then unit.

I have this compound here, CC(C)C[C@H](NC(=O)[C@H](CCc1ccccc1)NC(=O)CN1CCOCC1)C(=O)N[C@@H](Cc1ccccc1)C(=O)N[C@@H](CC(C)C)C(=O)[C@@]1(C)CO1 [CARFILZOMIB] , and I need its recorded clearance.
2270 mL/min

----------
# SYSTEM_TESTED: CYP3A (Homo sapiens, UniProt P08684+P20815+P24462+Q9HB55)
# PROTOCOL_DETAILS: Time-dependent inhibition of CYP3A in human liver microsomes assessed as testosterone 6-hydroxylation using testosterone as substrate by LC-MS/MS analysis
# Assay type: ADME
# EXPERIMENTAL_CONTEXT: probe testosterone (6-hydroxylation)
PROPERTY_LABEL: kinact (s⁻¹)
Numbers only, in s⁻¹.

I have this compound here, CC(C)C[C@H](NC(=O)[C@H](CCc1ccccc1)NC(=O)CN1CCOCC1)C(=O)N[C@@H](Cc1ccccc1)C(=O)N[C@@H](CC(C)C)C(=O)[C@@]1(C)CO1 , and I need its recorded kinact.
0.00167

----------
# PROTOCOL_DETAILS: Tmax in solid tumor patient at 2 mg, po administered as single dose followed by co-treatment with 27 mg/m2, iv carfilzomib over 2 to 10 mins on days 1, 2, 8, 9, 15 and 16 of single 28-day cycle measured on day 16
# Format: ADME, organism-based
# EXPERIMENTAL_CONTEXT: human, in vivo
PROPERTY_LABEL: Tmax
Answer format: number, then unit.

I have this compound here, Cc1ncc2n1-c1ccc(Cl)cc1C(c1ccccc1F)=NC2 [MIDAZOLAM] , and I need its recorded Tmax.
48 min

----------
# PROTOCOL_DETAILS: Plasma protein binding in iv dosed human multiple myeloma patient at 15 mg/m'2 in first cycle and escalated to 20 mg/m'2 thereafter administered on days 1, 2, 8, 9, 15 and 16 of 28-day cycle over 2 to 10 mins by LC-MS/MS analysis
# Type: ADME, organism-based
# EXPERIMENTAL_CONTEXT: read-out: PPB (converted)
PROPERTY_LABEL: fraction unbound
Answers are plain numbers.

I have this molecule here, CC(C)C[C@H](NC(=O)[C@H](CCc1ccccc1)NC(=O)CN1CCOCC1)C(=O)N[C@@H](Cc1ccccc1)C(=O)N[C@@H](CC(C)C)C(=O)[C@@]1(C)CO1 [CARFILZOMIB] , and I need its recorded fraction unbound.
0.024

----------
# PROTOCOL_DETAILS: Half life in human patient with relapsed solid tumor at 20 mg/m'2, iv administered on days 1, 2, 8, 9, 15 and 16 of 28-day cycle over 2 to 10 mins measured on day 16 of cycle 1 by LC-MS/MS analysis
# Type: ADME, organism-based
# EXPERIMENTAL_CONTEXT: in vivo
PROPERTY_LABEL: half-life (h)
Numbers only, in h.

I have this molecule here, CC(C)C[C@H](NC(=O)[C@H](CCc1ccccc1)NC(=O)CN1CCOCC1)C(=O)N[C@@H](Cc1ccccc1)C(=O)N[C@@H](CC(C)C)C(=O)[C@@]1(C)CO1 , and I need its recorded half-life.
1.1

----------
# PROTOCOL_DETAILS: Tmax in solid tumor patient at 2 mg, po administered as single dose followed by co-treatment with 27 mg/m2, iv carfilzomib over 2 to 10 mins on days 1, 2, 8, 9, 15 and 16 of single 28-day cycle measured on day 1
# Type: ADME, organism-based
# EXPERIMENTAL_CONTEXT: human, in vivo
PROPERTY_LABEL: Tmax (min)
Numbers only, in min.

I have this molecule here, Cc1ncc2n1-c1ccc(Cl)cc1C(c1ccccc1F)=NC2 , and I need its recorded Tmax.
42

----------
# PROTOCOL_DETAILS: clinical
# EXPERIMENTAL_CONTEXT: human, plasma, po
# Description: AUC(0 to 12 hrs) in solid tumor patient at 2 mg, po administered as single dose followed by co-treatment with 27 mg/m2, iv carfilzomib over 2 to 10 mins on days 1, 2, 8, 9, 15 and 16 of single 28-day cycle measured on day 1
PROPERTY_LABEL: AUC(0-t) (ng·h/mL)
Give bare numbers, in ng·h/mL.

I have this molecule here, Cc1ncc2n1-c1ccc(Cl)cc1C(c1ccccc1F)=NC2 [MIDAZOLAM] , and I need its recorded AUC(0-t).
40.3

----------
# PROTOCOL_DETAILS: AUC(last) in solid tumor patient at 2 mg, po administered as single dose measured on day 7
# EXPERIMENTAL_CONTEXT: human, plasma
PROPERTY_LABEL: AUC(0-t) (ng·h/mL)
Numbers only, in ng·h/mL.

I have this compound here, Cc1ncc2n1-c1ccc(Cl)cc1C(c1ccccc1F)=NC2 [MIDAZOLAM] , and I need its recorded AUC(0-t).
49.8

----------
# PROTOCOL_DETAILS: clinical
# EXPERIMENTAL_CONTEXT: human, plasma, po
# Description: AUC(last) in solid tumor patient at 2 mg, po administered as single dose followed by co-treatment with 27 mg/m2, iv carfilzomib over 2 to 10 mins on days 1, 2, 8, 9, 15 and 16 of single 28-day cycle measured on day 16
PROPERTY_LABEL: AUC(0-t) (ng·h/mL)
Answers are plain numbers, in ng·h/mL.

I have this compound here, Cc1ncc2n1-c1ccc(Cl)cc1C(c1ccccc1F)=NC2 , and I need its recorded AUC(0-t).
48.4

----------
# SYSTEM_TESTED: Cytochrome P450 2C19 (Homo sapiens, UniProt P33261)
# Sequence (P33261 whole entry): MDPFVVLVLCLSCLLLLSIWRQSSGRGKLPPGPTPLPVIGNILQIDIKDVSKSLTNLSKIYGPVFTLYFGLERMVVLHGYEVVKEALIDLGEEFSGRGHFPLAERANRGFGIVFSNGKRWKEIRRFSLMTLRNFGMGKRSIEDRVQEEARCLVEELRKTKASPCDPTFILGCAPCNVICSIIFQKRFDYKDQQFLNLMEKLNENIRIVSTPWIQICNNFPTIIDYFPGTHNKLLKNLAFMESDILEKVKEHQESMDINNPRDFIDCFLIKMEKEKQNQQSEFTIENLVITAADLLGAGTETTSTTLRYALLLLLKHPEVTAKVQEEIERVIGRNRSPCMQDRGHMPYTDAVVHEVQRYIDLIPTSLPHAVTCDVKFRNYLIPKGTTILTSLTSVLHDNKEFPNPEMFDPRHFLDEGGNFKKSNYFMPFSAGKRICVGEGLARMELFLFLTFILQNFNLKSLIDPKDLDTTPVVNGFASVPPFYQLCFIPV
PROPERTY_LABEL: IC50

I have this molecule here, CC(C)C[C@H](NC(=O)[C@H](CCc1ccccc1)NC(=O)CN1CCOCC1)C(=O)N[C@@H](Cc1ccccc1)C(=O)N[C@@H](CC(C)C)C(=O)[C@@]1(C)CO1 [CARFILZOMIB] , and I need its recorded IC50.
> 10 µM

----------
# PROTOCOL_DETAILS: Half life in human patient with relapsed solid tumor at 20 mg/m'2, iv administered on days 1, 2, 8, 9, 15 and 16 of 28-day cycle over 2 to 10 mins measured on day 1 of cycle 1 by LC-MS/MS analysis
# Type: ADME, organism-based
# EXPERIMENTAL_CONTEXT: in vivo
PROPERTY_LABEL: half-life (h)
Give bare numbers, in h.

I have this compound here, CC(C)C[C@H](NC(=O)[C@H](CCc1ccccc1)NC(=O)CN1CCOCC1)C(=O)N[C@@H](Cc1ccccc1)C(=O)N[C@@H](CC(C)C)C(=O)[C@@]1(C)CO1 , and I need its recorded half-life.
1

----------
# SYSTEM_TESTED: CYP3A (Homo sapiens, UniProt P08684+P20815+P24462+Q9HB55)
# PROTOCOL_DETAILS: Inhibition of CYP3A in human liver microsomes assessed as substrate metabolite formation using midazolam as substrate measured after 5 mins by LC-MS/MS analysis
# Format: ADME
# EXPERIMENTAL_CONTEXT: probe midazolam
PROPERTY_LABEL: IC50 at 5 min (µM)
Numbers only, in µM.

I have this molecule here, CC(C)C[C@H](NC(=O)[C@H](CCc1ccccc1)NC(=O)CN1CCOCC1)C(=O)N[C@@H](Cc1ccccc1)C(=O)N[C@@H](CC(C)C)C(=O)[C@@]1(C)CO1 , and I need its recorded IC50 at 5 min.
1.7

----------
# PROTOCOL_DETAILS: clinical
# EXPERIMENTAL_CONTEXT: human, in vivo, po
# Description: Cmax in solid tumor patient at 2 mg, po administered as single dose followed by co-treatment with 27 mg/m2, iv carfilzomib over 2 to 10 mins on days 1, 2, 8, 9, 15 and 16 of single 28-day cycle measured on day 16
PROPERTY_LABEL: Cmax (ng/mL)
Numbers only, in ng/mL.

I have this compound here, Cc1ncc2n1-c1ccc(Cl)cc1C(c1ccccc1F)=NC2 , and I need its recorded Cmax.
16

----------
# PROTOCOL_DETAILS: Half life in solid tumor patient at 2 mg, po administered as single dose followed by co-treatment with 27 mg/m2, iv carfilzomib over 2 to 10 mins on days 1, 2, 8, 9, 15 and 16 of single 28-day cycle measured on day 1
# EXPERIMENTAL_CONTEXT: human, in vivo
PROPERTY_LABEL: half-life

I have this molecule here, Cc1ncc2n1-c1ccc(Cl)cc1C(c1ccccc1F)=NC2 [MIDAZOLAM] , and I need its recorded half-life.
6.3 h

----------
# SYSTEM_TESTED: CYP3A (Homo sapiens, UniProt P08684+P20815+P24462+Q9HB55)
# PROTOCOL_DETAILS: Time-dependent inhibition of CYP3A in human liver microsomes assessed as testosterone 6-hydroxylation using testosterone as substrate by LC-MS/MS analysis
# Format: ADME
# EXPERIMENTAL_CONTEXT: probe testosterone (6-hydroxylation)
PROPERTY_LABEL: Ki (µM)
Give bare numbers, in µM.

I have this compound here, CC(C)C[C@H](NC(=O)[C@H](CCc1ccccc1)NC(=O)CN1CCOCC1)C(=O)N[C@@H](Cc1ccccc1)C(=O)N[C@@H](CC(C)C)C(=O)[C@@]1(C)CO1 [CARFILZOMIB] , and I need its recorded Ki.
11
